These entries and their values trace back to paper PMC6556873.

Entries and their viability at 48 h, 10 µM
# EXPERIMENT DESCRIPTION: in vitro
# Parameters: species or system HB2, HEK293
# EXPERIMENTAL PARAMETERS: human, ccd841 cells
Write the answer as a number in %, unit excluded.

MOLECULE	EXPERIMENTAL READOUT	OBSERVED
CC(NC(=O)CCl)c1ccc2c(c1)OCO2 (stereo not shown)	viability at 48 h, 10 µM	102
C=CC(=O)N1CCC(NC(=O)c2ccncc2)CC1	viability at 48 h, 10 µM	102
COCC(=O)NC(=O)CCl	viability at 48 h, 10 µM	116
O=C(CCl)NC(=O)c1ccccc1	viability at 48 h, 10 µM	101
O=C(CCl)Nc1ncc(Br)s1	viability at 48 h, 10 µM	47.7

Here is the next item to consider.
Data request: Fill in viability at 48 h, 10 µM for record C=CC(=O)N1CCCC1c1cc(C)on1 (stereo not shown)
Data returned: 101
